molecular target: Adenosine receptors; A1 & A3 (Homo sapiens) (UniProt P30542+P0DMS8); experiment: Selectivity for adenosine A1 receptor over adenosine A3 receptor; assay type: protein assay
Sequence (P0DMS8 whole entry, looked up): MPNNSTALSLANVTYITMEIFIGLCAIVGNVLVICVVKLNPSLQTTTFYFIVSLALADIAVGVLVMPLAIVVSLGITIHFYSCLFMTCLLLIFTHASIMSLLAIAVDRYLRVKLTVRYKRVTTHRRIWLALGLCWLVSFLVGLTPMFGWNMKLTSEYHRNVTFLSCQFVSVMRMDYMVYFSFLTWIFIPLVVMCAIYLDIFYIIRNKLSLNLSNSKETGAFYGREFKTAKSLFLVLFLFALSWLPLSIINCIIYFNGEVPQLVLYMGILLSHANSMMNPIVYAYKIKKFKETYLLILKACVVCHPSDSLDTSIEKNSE
Sequence (P30542 whole entry, looked up): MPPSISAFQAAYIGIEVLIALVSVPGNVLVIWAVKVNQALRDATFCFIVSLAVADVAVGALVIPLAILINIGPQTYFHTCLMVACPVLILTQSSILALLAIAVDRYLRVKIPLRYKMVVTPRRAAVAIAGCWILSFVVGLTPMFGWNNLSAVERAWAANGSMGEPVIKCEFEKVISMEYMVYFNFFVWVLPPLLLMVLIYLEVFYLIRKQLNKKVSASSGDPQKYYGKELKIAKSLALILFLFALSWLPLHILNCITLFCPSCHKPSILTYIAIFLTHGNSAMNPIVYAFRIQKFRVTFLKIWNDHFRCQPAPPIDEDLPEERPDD
QUANTITY MEASURED: Ratio Ki

1. CCOC(=O)c1cnn(-c2nc(NC3CCCC3)c3ncn([C@@H]4O[C@H](CO)[C@@H](O)[C@H]4O)c3n2)c1
2. O=C(O)c1cnn(-c2nc(NC3CCCC3)c3ncn([C@@H]4O[C@H](CO)[C@@H](O)[C@H]4O)c3n2)c1
Q) Of 1 versus 2 , which is the one with smaller reported Ratio Ki? Answer format: the label of the selected item.
A) 1
(1: 21, 2: 468)
